measured.target: UniProtKB P08684
method.notes: Inhibition Assay: Six test compound concentrations (0.1, 0.25, 1, 2.5, 10, 25 μM in DMSO; final DMSO concentration=0.275%) are incubated with human liver microsomes (0.5 mg/mL) and NADPH (1 mM) in the presence of the probe substrate testosterone (50 μM) for 5 min at 37° C. The selective CYP3A4 inhibitor, ketoconazole, is screened alongside the test compounds as a positive control.
pIC50: −log10 of the molar value.

molecule	pIC50
C[C@]12CC[C@H]3[C@@H](C[C@@H](O)C4=CC(=O)CC[C@@]43C)[C@@H]1CC[C@@H]2O [6beta-hydroxytestosterone]	4.98

====

measured.target: Cytochrome P450 3A4 (Homo sapiens)
Sequence (P08684 whole entry): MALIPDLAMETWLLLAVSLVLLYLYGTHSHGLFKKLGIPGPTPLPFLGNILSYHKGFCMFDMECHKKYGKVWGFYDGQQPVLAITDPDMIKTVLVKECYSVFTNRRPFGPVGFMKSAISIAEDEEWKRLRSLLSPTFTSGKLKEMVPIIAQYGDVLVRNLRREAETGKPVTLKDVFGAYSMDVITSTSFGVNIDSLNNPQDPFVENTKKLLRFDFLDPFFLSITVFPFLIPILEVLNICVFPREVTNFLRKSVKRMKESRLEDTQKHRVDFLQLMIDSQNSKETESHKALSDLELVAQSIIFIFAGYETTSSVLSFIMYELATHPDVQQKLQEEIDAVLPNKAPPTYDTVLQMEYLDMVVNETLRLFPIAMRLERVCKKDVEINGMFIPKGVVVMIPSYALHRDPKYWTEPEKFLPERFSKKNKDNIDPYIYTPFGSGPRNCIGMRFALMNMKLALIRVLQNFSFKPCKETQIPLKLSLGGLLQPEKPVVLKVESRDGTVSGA
method.notes: Inhibition Assay: Six test compound concentrations (0.1, 0.25, 1, 2.5, 10, 25 μM in DMSO; final DMSO concentration=0.26%) are incubated with human liver microsomes (0.1 mg/mL) and NADPH (1 mM) in the presence of the probe substrate midazolam ([…]) for 5 min at 37° C. The selective CYP3A4 inhibitor, ketoconazole, is screened alongside the test compounds as a positive control.
assay.endpoint: IC50 (nM)

molecule	measured.target	assay.endpoint	result.units	number
OCc1ncc2n1-c1ccc(Cl)cc1C(c1ccccc1F)=NC2 [ALPHA-HYDROXY-MIDAZOLAM]	Cytochrome P450 3A4 (Homo sapiens)	IC50	nM	2700

====

Protein target, amino acids: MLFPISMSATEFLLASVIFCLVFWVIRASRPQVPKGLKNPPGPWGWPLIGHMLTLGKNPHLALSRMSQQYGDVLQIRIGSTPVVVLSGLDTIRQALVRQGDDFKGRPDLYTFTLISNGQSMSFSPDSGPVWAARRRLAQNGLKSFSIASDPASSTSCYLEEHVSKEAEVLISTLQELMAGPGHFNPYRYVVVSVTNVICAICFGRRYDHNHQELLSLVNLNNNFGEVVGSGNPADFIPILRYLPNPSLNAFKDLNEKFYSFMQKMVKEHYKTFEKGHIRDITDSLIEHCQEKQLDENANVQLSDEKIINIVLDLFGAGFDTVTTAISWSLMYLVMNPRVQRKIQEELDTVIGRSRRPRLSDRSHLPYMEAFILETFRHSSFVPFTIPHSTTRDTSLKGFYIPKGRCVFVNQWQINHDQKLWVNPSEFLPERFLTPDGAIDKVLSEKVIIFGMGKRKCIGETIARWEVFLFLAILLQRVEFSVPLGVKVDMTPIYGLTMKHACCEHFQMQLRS

molecule	IC50
O=c1ccc2nc3ccc(O)cc3oc-2c1	> 25 µM

====

measured.target: Cytochrome P450 2B6 (Homo sapiens, UniProt P20813)
Sequence (P20813 whole entry): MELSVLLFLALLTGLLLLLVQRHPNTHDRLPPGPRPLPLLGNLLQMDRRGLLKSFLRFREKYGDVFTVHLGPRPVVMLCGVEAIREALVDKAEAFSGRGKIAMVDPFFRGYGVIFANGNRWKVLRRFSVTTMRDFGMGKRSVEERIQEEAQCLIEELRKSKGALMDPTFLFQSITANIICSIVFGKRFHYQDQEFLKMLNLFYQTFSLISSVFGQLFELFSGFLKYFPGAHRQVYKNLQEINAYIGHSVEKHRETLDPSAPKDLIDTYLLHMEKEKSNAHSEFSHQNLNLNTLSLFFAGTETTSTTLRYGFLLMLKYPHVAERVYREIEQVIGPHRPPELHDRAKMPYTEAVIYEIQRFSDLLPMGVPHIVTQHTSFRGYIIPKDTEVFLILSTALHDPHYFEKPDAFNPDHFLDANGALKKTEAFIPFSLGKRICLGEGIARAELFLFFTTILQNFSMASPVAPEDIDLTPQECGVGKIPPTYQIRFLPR
pIC50: −log10 of the molar value.

compound	pIC50
CC(NC(C)(C)CO)C(=O)c1cccc(Cl)c1 (stereo unspecified)	4.72
